# Protocol text: RPMI8226 myeloma cell viability, profiling panel, resazurin fluorescence, basal, 24 h, PK04 Diversity Set (AID 1180);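 note: RPMI8826 multiple myeloma cell line at 5000 cells per well; test concentration not given here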
# Run conditions: higher = more signal
What z-score was measured for each of the following?
Answers are plain numbers.

Worked cases, answers included:
CCN1C(=O)[C@H]2[C@H]3[C@H](O)[C@H](O)CC(=NO[C@@H](C)c4cc(-c5c(C)cc(C)cc5C)no4)[C@@H]3CC[C@H]2C1=O	-0.835
O=C1C2=CC[C@H]3C(=O)N(Cc4ccccc4)C(=O)[C@H]3[C@H]2[C@H](O)[C@@H]2O[C@H]12	-3.38
C=CC[C@@H]1C=C[C@H](ON=C(C)CCN2CCCCc3nc(C)c(C)cc32)[C@@H](CO)O1	-0.103

Please turn your attention to the following entry.
Look at this compound and give its reported z-score. CCOC(=O)[C@H](Cc1ccccc1)NC(=O)CCC1CC(OC(=O)NCc2cccc3ccccc23)CC2(CCCC(COC(=O)NCCc3ccccc3OC)O2)O1 (some centres undefined)
0.0498

* * *

# Protocol text: basal MM1S mitochondrial membrane potential changes, profiling panel, cell-based, JC-1 fluorescence, 24 h, 100 nL compound (AID 1170); note: test concentration not given here
# Run conditions: higher = more signal
Experimental readout: z-score

COC(=O)[C@@H]1CC[C@H](C)[C@@H](c2ccc(Br)cc2)N1C[C@H](O)CN=[N+]=[N-]	0.75

// input: 3 compounds below; output: z-score for each
1. CC(CCC(=O)OC[C@H]1O[C@H](C#Cc2ccccc2)C=C[C@@H]1Oc1ccc(C)cc1)=NO[C@H](C)c1cn([C@@H]2COC[C@H]2O)nn1
2. O=C1[C@H]2[C@H]3[C@H](O)[C@H](O)CC(=NO[C@@H]4O[C@H](CO)[C@@H](O)[C@H](O)[C@H]4O)[C@@H]3CC[C@H]2C(=O)N1C1CCCCC1
3. COC(=O)CC=C[C@@H](C)[C@@H](C=NOC(C)CN1CCCCc2nc(C)c(C)cc21)NS(=O)(=O)c1ccc(C)cc1 (some centres undefined)

-1.1
-1.25
-0.0131

* * *

# System name: Streptavidin (Streptomyces avidinii)
# Protocol text: streptavidin binders on small-molecule microarray, primary screen, artefact control for SMM compound annotation, biophysical, 635/667 nm fluorescence (AID 1147);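 note: signal reflects streptavidin binding to arrayed compounds as a control protein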
# Run conditions: streptavidin binding, higher = more signal
Experimental readout: composite z-score
Numbers only.

Cc1cc(C)c(-c2cc([C@H](C)ON=C[C@@H](C)[C@H](OCc3ccccc3)C(C)C)on2)c(C)c1	0.0366
CCOC(=O)CCN1C(=O)[C@H]2[C@H]3[C@H](O)[C@H](O)CC(=NO[C@@H]4O[C@H](CO)[C@@H](O)[C@H](O)[C@H]4O)[C@@H]3CC[C@H]2C1=O	0.036
C#CCCCON=C1C[C@@H](O)[C@@H](O)[C@@H]2[C@@H]3C(=O)N(CC)C(=O)[C@@H]3CC[C@H]12	0.0761

Please turn your attention to the following entry.
Look at this compound and give its reported composite z-score. COC(=O)[C@H](CCSC)NC(=O)CC=C[C@@H](C)CO
-1.27

* * *

What z-score was measured for each of the following?
# Protocol text: E. coli growth modulation, two-sided OD650, primary screen, E. coli filamentation project, strain DRC41, 24 h (AID 1093);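 note: MC1000 strain lacking acrAB efflux and sulA so SOS filamentation is blocked; test concentration not given here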
# Run conditions: OD650, 24 h, higher = more signal, called active from +8 up or from −8 down
One number for each entry.

COc1ccc(OC[C@@H](CO)OC)cc1	0.418

// input: 7 compounds below; output: z-score for each
1. CO[C@H]1COC(=O)[C@H](C)COC(=O)[C@@H](OCc2ccccc2)C=C[C@@H]1C
2. O=C1CCCC=C1C(O)c1ccc([N+](=O)[O-])cc1 (stereo not drawn)
3. CCN1C(=O)[C@H]2[C@H]3[C@H](O)[C@H](O)CC(=NOCC(C)C)[C@H]3CC[C@H]2C1=O
4. CC(CCN1CCCc2nc(C)c(C)cc21)=NO[C@@H](C)c1cn([C@H](CO)Cc2ccccc2)nn1
5. CCOC(=O)[C@H](Cc1ccccc1)NC(=O)CCC1CC(OC(=O)NCc2cccc3ccccc23)CC2(CCCC(COC(=O)NCC3CCCCC3)O2)O1 (stereo partly drawn)
6. O=C1C2=CC[C@H]3C(=O)N(Cc4ccccc4)C(=O)[C@H]3[C@H]2[C@H](O)[C@@H]2O[C@H]12
7. O=C1[C@H]2[C@H]3[C@H](O)[C@H](O)CC(=NO[C@@H]4O[C@H](CO)[C@@H](O)[C@H](O)[C@H]4O)[C@@H]3CC[C@H]2C(=O)N1c1cccc(Oc2ccccc2)c1

[0.554, 0.999, 0.769, 0.923, -0.448, -0.559, 0.364]

* * *

# System name: Torsin-1A (Homo sapiens) (UniProt O14656)
# Sequence (O14656 whole entry, looked up): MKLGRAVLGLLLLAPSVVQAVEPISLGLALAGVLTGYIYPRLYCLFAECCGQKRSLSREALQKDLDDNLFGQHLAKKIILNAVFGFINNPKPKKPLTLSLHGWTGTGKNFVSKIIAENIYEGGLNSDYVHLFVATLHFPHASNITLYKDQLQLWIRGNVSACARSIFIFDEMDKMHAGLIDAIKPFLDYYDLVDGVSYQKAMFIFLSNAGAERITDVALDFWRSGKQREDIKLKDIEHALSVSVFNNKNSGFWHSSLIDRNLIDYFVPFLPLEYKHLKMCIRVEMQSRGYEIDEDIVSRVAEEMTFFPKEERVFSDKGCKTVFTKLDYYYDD
# Protocol text: small-molecule binders of mutant TOR1A in lysate, primary screen, cell lysate, small-molecule microarray, COS7 lysate, 635/667 nm fluorescence (AID 1150);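 note: score pools 667 nm emission and signal to noise measuring lysate protein binding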
# Run conditions: COS7 hTOR1A mutant lysate, 635 nm fluorescence, higher = more signal
Experimental readout: composite z-score

Worked cases, answers included:
CCN1C(=O)[C@H]2[C@H]3[C@H](O)[C@H](O)CC(=NO[C@@H]4O[C@H](COC(C)=O)[C@@H](OC(C)=O)[C@H](OC(C)=O)[C@H]4OC(C)=O)[C@@H]3CC[C@H]2C1=O	0.0248
CC(CCN1CCCc2nc(C)c(C)cc21)=NO[C@H](C)c1cn([C@@H]2COC[C@H]2O)nn1	2.3
CC(CCN1CCCCc2nc(C)c(C)cc21)=NO[C@H](C)c1cn([C@@H]2COC[C@H]2O)nn1	2.5

Please turn your attention to the following entry.
Look at this compound and give its reported composite z-score. O=C1C[C@@H](O)[C@@H](O)[C@@H]2[C@@H]3C(=O)N(C4CCCCC4)C(=O)[C@@H]3CC[C@@H]12
0.311

* * *

What composite z-score was measured for each of the following?
# System name: Concanavalin-A (Canavalia ensiformis)
# Protocol text: ConA small-molecule binders, primary screen, artefact control for SMM control protein annotation, biochemical, small-molecule microarray, Alexa647 label, 635 nm (AID 1127);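 note: z combines 667 nm emission intensity with signal-to-noise across three replicate slides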
# Run conditions: ConA-A647 binding fluorescence, higher = more signal
Numbers only.

CC(C)[C@@H](OCc1ccccc1)[C@H](C)C=NOC[C@@H](O)[C@H]1O[C@@H]2OC(C)(C)O[C@@H]2[C@H]1O	1.07
O=C1[C@H]2CCn3c(=O)n(-c4ccccc4)c(=O)n3[C@H]2[C@H](O)[C@@H]2O[C@H]12	0.218
COCOc1ccc(Br)cc1C(=O)C=Cc1ccc2c(c1)OCO2	-0.723

// input: 2 compounds below; output: composite z-score for each
1. CC(C)=CCCC(C)=CCON=C1C[C@@H](O)[C@@H](O)[C@@H]2[C@@H]3C(=O)N(Cc4ccc5c(c4)OCO5)C(=O)[C@@H]3CC[C@H]12
2. COC(=O)[C@H](C)NC(=O)CCC1CC(OC(=O)NCc2ccc3c(c2)OCO3)CC2(CCCC(COC(=O)NCCCN3CCCC3=O)O2)O1 (stereo partly drawn)

-0.0491
0.872

* * *

What composite z-score was measured for each of the following?
# Protocol text: small-molecule microarray binders of probe aLefty2, primary screen, biochemical, biotinylated probe, 635/667 nm fluorescence (AID 1094);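 note: score merges spot fluorescence near 667 nm with spot signal-to-noise ratio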
# Run conditions: higher = more signal
One number for each entry.

Worked cases, answers included:
O=C(NN=C1C[C@@H](O)[C@@H](O)[C@@H]2[C@@H]3C(=O)N(Cc4ccc5c(c4)OCO5)C(=O)[C@@H]3CC[C@@H]12)OCc1ccccc1	0.0026
CCOC(=O)[C@H](Cc1ccccc1)NC(=O)CCC1CC(OC(=O)NCCc2ccc(F)cc2)CC2(CCCC(COC(=O)NCCC(C)C)O2)O1 (stereo partly specified)	-0.145

// input: 3 molecules below; output: composite z-score for each
1. COC(OC)[C@@H](C)[C@H](OC)[C@@H](C)[C@H](OC)c1ccccc1
2. C[C@@H]1CC[C@H]2C(=O)N3[C@@H](CC[C@@H](C)[C@@H]3c3ccc(Br)cc3)C(=O)N2[C@H]1c1ccc(Br)cc1
3. CCOC(=O)CCN1C(=O)[C@H]2[C@@H]3C(=CC[C@H]2C1=O)C(=O)[C@H]1O[C@H]1[C@H]3O

0.308
-0.0865
-0.27

// input: 7 molecules below; output: composite z-score for each
1. C[C@H]1CC[C@H]2C(=O)O[C@H](CO)CN2[C@@H]1c1ccc(Br)cc1
2. COC(=O)[C@H](C)NC(=O)CCC1CC(OC(=O)NCc2cccc3ccccc23)CC2(CCCC(COC(=O)NCCC(C)C)O2)O1 (stereo partly specified)
3. CC(=O)OC[C@H]1O[C@H](CCON=C(C)CCN2CCCc3nc(C)c(C)cc32)C=C[C@@H]1OC(C)=O
4. CCOC(=O)[C@H](CC(C)C)NC(=O)CCC1CC(OC(=O)NCc2ccc3c(c2)OCO3)CC2(CCCC(COC(=O)NCCOC)O2)O1 (stereo partly specified)
5. CC(C)=CCCC(C)=CCON=C1[C@H]2CCn3c(=O)n(-c4ccccc4)c(=O)n3[C@H]2[C@H](O)[C@@H]2O[C@H]12
6. CC(C)=NOC(C)CN1CCCc2nc(C)c(C)cc21 (stereo unspecified)
7. CC(=O)OC[C@H]1O[C@H](CC=NOC[C@@H](O)COCc2ccco2)C=C[C@@H]1OC(C)=O

1: -0.141; 2: -0.205; 3: 0.118; 4: -0.205; 5: 0.207; 6: 0.406; 7: 0.0658
